biological target: Neu5Ac(a2-6)Gal(b1-4)GlcNAc(b1-6)[Gal(b1-3)]GalNAc; assay: glycan array binding signal (z-score within array); higher = stronger binding; settings: glycan notation: IUPAC condensed, linker removed
The full list was thinned out, with the strongest signals kept by preference.
MEASURE: glycan array binding signal (z-score)

The reported glycan array binding signal (z-score) of the binder LlpA1 (Pseudomonas fluorescens), Q4KHC3 (protein) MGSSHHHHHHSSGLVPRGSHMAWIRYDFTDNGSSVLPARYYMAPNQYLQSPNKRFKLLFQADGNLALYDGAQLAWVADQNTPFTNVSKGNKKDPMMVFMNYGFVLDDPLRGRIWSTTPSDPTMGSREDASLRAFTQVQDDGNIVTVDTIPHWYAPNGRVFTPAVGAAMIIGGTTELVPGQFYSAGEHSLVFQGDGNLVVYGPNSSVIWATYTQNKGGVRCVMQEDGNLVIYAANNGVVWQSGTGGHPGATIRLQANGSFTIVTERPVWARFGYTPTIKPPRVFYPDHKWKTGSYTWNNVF was 0.228
